# Test system: K4 kissing-loop RNA reporter
# Test method notes: apparent KD of K4 kissing-loop reporter; higher = weaker reporter binding
# Condition info: Eterna round: R107; input ligand: tryptophan 2.4 mM
Measured parameter: apparent KD of K4 kissing-loop reporter (nM)
Numeric answer only, unit nM assumed.

# example entries with known answers
| Ordered residues | apparent KD of K4 kissing-loop reporter (nM) |
| --- | --- |
| AAAAUAACCCAGUGAUGUUGGUAUGCAGAUACCAGCGACGAAAGUCGCCCUUGGCAGCUGUGGACGUACAAAAUAAGUACGUCCU | 1520 |
| AGCCUUACAUCGGCCGCCACUUCCCUGGCAGUGAUGUUGCCGUAGACAAUCAUUCUACCCUGGAGAAGGACCGGGAUGCAGAAAC [theeternabot_sameState_KL_Trp_B_8] | 329 |
| UGACGUUUGGGAAGGAGCGGAAUGUAAUACGGAACGCGUGGAGAUGCAGUGAUGUUGCAGAUCCAGGUAGGUCGCCCAAGGGACG [Zainat] | 94.2 |
| CGAGUCCUGAGGAGUGAUGUUCCUCGGCCACGAGGACCGGUACGGCCGCCACUCGUUACUCGGGCUUAGCAGCAAGCACUAAGCU [Acesote] | 127 |
| GCCGUAGUUGGAAGGAGCGUGAAUGGCCUCUAUCCAAAGUGAUGUUUUGUUGAAGACUGUUCACAGGUAGGUCGCCAACUACGGC [#09 K4 Arginine B Same State] | 132 |

Could you tell me which apparent KD of K4 kissing-loop reporter is on file for AUCCGGAGUGCGGCCGCCACUAUCGGAUAGAGUGAUGUUCUAUCCGGCCUUAAAGGCGCGAACGAUAGGACCGGGCACUCUAAAU [Quatinti] ?
122

Could you tell me which apparent KD of K4 kissing-loop reporter is on file for AAUUUAUUAACUGAUACCAGACUUUAGCGUGUUUAUAAGUCAAGUGAUGUUUGACUAUUAGUCCCUUGGCAGCAGUAUUUAUUAA [JR_SSTheophyB_Sub022] ?
120

Could you tell me which apparent KD of K4 kissing-loop reporter is on file for UCGCAAAAGUCGGCCGCCACUCCGGGCCCUAUAAAUGGGCGCAGUGAUGUUGCGGCUAGGCCUCUGAGGACCGGGACUUUGUAGC [Tixelequ] ?
156

Could you tell me which apparent KD of K4 kissing-loop reporter is on file for AUAGGCAUAGCCCGAGUGAUGUUCGACGAUACCAGCCUCGAUAGAGGCCCUUGGCAGCGUAAAUGAUCAUGAAGCCAAGGAAUUA [whbob_Ex_Theo_A_th70] ?
277

Could you tell me which apparent KD of K4 kissing-loop reporter is on file for GCCGUAGAUUGAAGGAGCGUGGAACUAUGGCUUGAACAGUGAUGUUGUUUAUCUAGGUAGCCGCAGGUAGGUCGCAAUCUACGGC ?
229

Could you tell me which apparent KD of K4 kissing-loop reporter is on file for UGCAGUGAUGUUGCUAUUUUUCUUGAUUAACGAGGACCGGUACGGCCGCCACUCGAUUUCUCUCUAGUCCAGUAUGUUGUUUGAU [whbob_EX_Tryp_A_t5] ?
82.9

----------
# System: MS2 coat protein
# Test method notes: apparent KD of MS2 coat protein; designed switch direction (-1 OFF switch, 1 ON switch): 1; higher = weaker reporter binding
# Condition info: input ligand: FMN 200 uM
apparent KD of MS2 coat protein values by entry
Numeric answer only, unit nM assumed.

| Ordered residues | Measured parameter | Obs value |
| --- | --- | --- |
| UAUAUUAUGGUAGGAUAUGUAGGAUAUGGCGAGAGCUAAGCUUGGAAGUCACUUCAGCCAGAAGGACAGAAGGACCAUAAUAUU [pwkr ssNG2 2FMN + F9.9] (Eterna round: R96, puzzle: Same State NG 2) | apparent KD of MS2 coat protein | 16.6 |

Could you tell me which apparent KD of MS2 coat protein is on file for AUUCGUUUGAUAGGAUAUCACCUUACAUGAGGAUCACCCAUGUUCACCACGCUGGUUUUUCAUACUGAGAAGGAUCUUGAUGAC [JR_SSNG2_Sub007] (Eterna round: R96, puzzle: Same State NG 2) ?
50.5

----------
# System: MS2 coat protein
# Test method notes: apparent KD of MS2 coat protein; higher = weaker reporter binding
# Condition info: Eterna round: R107; input ligand: tryptophan 2.4 mM
apparent KD of MS2 coat protein values by entry
Numeric answer only, unit nM assumed.

| Ordered residues | Obs value |
| --- | --- |
| UGUAUGGACUGAAGGAGCGCCUCAAAAUAUCAUGAGGAUCACCCAUGGAAGGCGAAAGCCGGGCAGGUAGGUCGCAGUCCAUACU [ArgBX 3] | 13.4 |
| AUCUUGUACCGUAAUACUUUACGUUGGGAUACCAGCAUGGACCCAUGCCCUUGGCAGCUUUACAUGAGGAUCACCCAUGUUGUAG [SSTheo A #28] | 39.9 |

Could you tell me which apparent KD of MS2 coat protein is on file for UUUACAUGAGGAUCACCCAUGUGCCAUGAUACCAGACAUGAAAAUGUCCCUUGGCAGCAUGAGUGAUGCAUCCGAAAGGAUGUUU [Ivanovice] ?
52.4

Could you tell me which apparent KD of MS2 coat protein is on file for UGUAUGUGAUCUGAUACCAGCCUCAUAACUUGAGGAUCACCCAAGUGGAGCGGAAACGCUGGCCCUUGGCAGCAGAUCGCAUACU [TheoBS 2 #AlternativeMS2] ?
556

Could you tell me which apparent KD of MS2 coat protein is on file for CCACACAUGAGGAUCACCCAUGUAAUUGAUACCAGAUUUAAAUGAGUCCCUUGGCAGCAGUGAGCUAGAGUUGUCGUAUAUAUGG [Theo A SS t2] ?
16.1

Could you tell me which apparent KD of MS2 coat protein is on file for CUUAUAGUAACUGAUACCAGUGUACUGACAUGAGGAUCACCCAUGUUGGGUUUUGUUGUACACCCUUGGCAGCAGAAUCUAUAAG [AstrosExyTheB#10] ?
58.8

----------
# Test system: MS2 coat protein
# Test method notes: apparent KD of MS2 coat protein, switch ON state; designed switch direction (-1 OFF switch, 1 ON switch): -1; higher = weaker reporter binding
# Condition info: FMN input: 0 or 200 uM; Eterna round: R93 (includes R88 designs)
Label TRUE when apparent KD of MS2 coat protein is at or above 50 nM; otherwise label FALSE.

| Ordered residues | Target desc | Label class |
| --- | --- | --- |
| AAGAAGUCAGGAUAUGCCAGAGAUCACGAAAGUGACGAGUAGCAGAAGGGACAUGAGGAUCACCCAUGUAAAGA [Opal 7] | MS2 coat protein | FALSE |

Continue with the next sequence.
Threshold query (apparent KD of MS2 coat protein >= 50 nM) on AAAAAGUGAGGAUAUCGGAAAAAAAAAAAAAAAAAAAAAAACGAGAAGGCACAUGAGGAUCACCCAUGUAAAAA [all GC all the time + G boost - take 2]
FALSE

----------
# Test system: K4 kissing-loop RNA reporter
# Test method notes: apparent KD of K4 kissing-loop reporter; higher = weaker reporter binding
# Condition info: Eterna round: R107; input ligand: tryptophan 2.4 mM
Entries are sorted into classes by apparent KD of K4 kissing-loop reporter as follows: bottom: < 100 nM; middle: ≥ 100 nM and < 200 nM; top: ≥ 200 nM

| Ordered residues | Label class |
| --- | --- |
| UAAUUUAUGUCUUUAAUUUUAUUAUCAGAUACCAGUGAUUUAUGACACCCUUGGCAGCUGUAUUGAGUGAUGUUCUUAUAUUAAA [JR_Nu_ExcTheophyA_Sub023] | bottom |
| CGAGUGAUGUUCGUUCGUUUAUUUCGGUGACAGGAUAUGCGGAAACGCAGAAGGGUCACCUUUGGGUUACCGGAAUUAACGUUAU [Ex FMN A 30] | top |
| CCUAUCUCGUACGAUACCAGACUAUGAUCUUUGAUCAAUGCCAUCACCGAGUGAUGUUCGGUCCCUUGGCAGCGUAUGAGAUGGG [#12 K4 Theophylline B Exclusion] | middle |
| AGAACUGUCUUGGAUACCAGUGAUGUUGGUAUCGAUGUGUGAGUGCAAAGCGUCCCACAUCGCCCUUGGCAGCUAAGACUGUUCA [Omei KL Theo B Exc A v4] | top |

Continue with the next sequence.
Class (by measured apparent KD of K4 kissing-loop reporter) for UGAUAAAGCAGUGAUGUUGCAAGUAAUGAUACCAGUUAAGAAGAGAACCCUUGGCAGCAUAAAGUGCGCUCUAAUGAGUGUGCUU [whbob_SS_Theo_A_w51]
bottom

----------
apparent KD of K4 kissing-loop reporter values by entry
# System: K4 kissing-loop RNA reporter
# Test method notes: apparent KD of K4 kissing-loop reporter; higher = weaker reporter binding
# Condition info: Eterna round: R107; input ligand: tryptophan 2.4 mM

# example entries with known answers
| Ordered residues | apparent KD of K4 kissing-loop reporter |
| --- | --- |
| UAUGUACACGGGUAGUUGUACAUCGAGGAAGGAGCGUGCGCAGGCACAGGUAGGUCGCCUCAGCGCACGAGUGAUGUUCGUGGGC [Xexegeus] | 247 nM |
| CGUGAGUGCCGUCAGUCAUCGGUCCAUGCACGAGGACCGGUACGGCCGCCACUCGAGCGUGGCAGUGAUGUUGCCAGCGCACUAA [KL-XTryp-A12] | 89.4 nM |
| UGACAUUGCUCAGAUACCAGACAUGAGCAUCAGCCAUGUGCCAAACGUACAAUAAUAAAUGUCCCUUGGCAGCUGAGCAAUGUCU [TheoBX 14] | 44.8 nM |

Give the reported apparent KD of K4 kissing-loop reporter for GUGGAAUUAUGAAAGUGGUUUUAUUAGGAAGGAGCGGCCGAAAGGCCAGGUAGGUCGCCUAUUGACAGUGAUGUUGUUAUAUGGU [#14] (system: K4 kissing-loop RNA reporter).
94.3 nM

Give the reported apparent KD of K4 kissing-loop reporter for UUAGUCUAGAGAAGGAGCGAGUGAUGUUUGCUAAGAUCUAUGAUAUCAUAGAUCAAAUUUACUCAGGUAGGUCGCUCUAGACAUU [AK4 Exc Arginine B] (system: K4 kissing-loop RNA reporter).
137 nM

Give the reported apparent KD of K4 kissing-loop reporter for GGCGGCCGCGCGCAAGCGCGGCCGGCCGAUACCAGCGCGACGGCGCGCCCUUGGCAGCGGCGCCGAGUGAUGUUCGGCCUGCCGU [#2 Same State - Theophylline A Attempt #15 (HarryS)] (system: K4 kissing-loop RNA reporter).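 Also: bound reporter read as fluorescence of individual clusters on recovered sequencing chips by microscopy, with normalized cluster intensities fitted with a binding model.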
96.4 nM

Where do the numbers come from? From the supplement of paper PMC9170038.
